B1: Hairpin Ribozyme (parent)
chain: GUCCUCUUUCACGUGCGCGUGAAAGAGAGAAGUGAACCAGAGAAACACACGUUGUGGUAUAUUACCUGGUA

- Variants of: B1
- protocol-summary: self-cleavage, relative activity (ratio to wild type); higher = more cleavage; co-transcriptional
Would you kindly list self-cleavage for each of these variants?
Give bare numbers.

Each variant below has a recorded value; state its self-cleavage.
1. GUCCUCGUUCACGUCCGCGUGAAAGAGAGAAGUGAACCAGAGAAACACACGUUGUGGUAUAUUACCUGGUA
2. GUCUUCUUUCACGUGCGCGUGAAAGAGAGAAGUGAUCCAGAGAAACACACGUUGUGGUAUAUUACCUGGUA
3. GUCCUCUUUCACGUGCGAGUGAAAGAGAGAAGUGGACCAGAGAAACACACGUUGUGGUAUAUUACCUGGUA

0.836
0.227
1.05

Each variant below has a recorded value; state its self-cleavage.
1. GUCUUCUUUCACGUGCGCGUGAAAGAGAGAAGUGAACCAGAGAAACACACGUAGUGGUAUAUUACCUGGUA
2. GUCCGCUUUCACGUGCGCGUGAAAGAGAGAAGUGAACCAGAGAAACACACGUUGUGGUAUAUUCCCUGGUA
3. GUCCUCUUUCACGUGCGCGUGAAAGAGAGAAGUGAUCCAGAGAAACACACGUUGAGGUAUAUUACCUGGUA
4. GUCCUCUUUCACGUGCGCGUGAAACAGAGAAGUGAACCACAGAAACACACGUUGUGGUAUAUUACCUGGUA

[0.358, 0.155, 0.161, 0.102]

Each recorded value in this set is attributed to the RNAGym collection of RNA variant scans (doi:10.7554/elife.80360).
